- test.target: NAD(+) hydrolase SARM1 (Homo sapiens)
- experimental.details: Noncompetitive inhibition of recombinant human SARM1 TIR domain (561 to 724 residues) expressed in Escherichia coli C43 (DE3) cells lysates assessed as EADPR formation using ENAD as substrate preincubated for 20 mins followed by ENAD addition and measured at 15 sec interval for 1 hr
- Type: subcellular
pKi: −log10 of the molar value.

compound.structure.string | pKi
NC(=O)N/N=C/c1ccc([N+](=O)[O-])o1 | 3.92

----------
- test.target: NAD(+) hydrolase SARM1 (Homo sapiens)
- Sequence (Q6SZW1 whole entry): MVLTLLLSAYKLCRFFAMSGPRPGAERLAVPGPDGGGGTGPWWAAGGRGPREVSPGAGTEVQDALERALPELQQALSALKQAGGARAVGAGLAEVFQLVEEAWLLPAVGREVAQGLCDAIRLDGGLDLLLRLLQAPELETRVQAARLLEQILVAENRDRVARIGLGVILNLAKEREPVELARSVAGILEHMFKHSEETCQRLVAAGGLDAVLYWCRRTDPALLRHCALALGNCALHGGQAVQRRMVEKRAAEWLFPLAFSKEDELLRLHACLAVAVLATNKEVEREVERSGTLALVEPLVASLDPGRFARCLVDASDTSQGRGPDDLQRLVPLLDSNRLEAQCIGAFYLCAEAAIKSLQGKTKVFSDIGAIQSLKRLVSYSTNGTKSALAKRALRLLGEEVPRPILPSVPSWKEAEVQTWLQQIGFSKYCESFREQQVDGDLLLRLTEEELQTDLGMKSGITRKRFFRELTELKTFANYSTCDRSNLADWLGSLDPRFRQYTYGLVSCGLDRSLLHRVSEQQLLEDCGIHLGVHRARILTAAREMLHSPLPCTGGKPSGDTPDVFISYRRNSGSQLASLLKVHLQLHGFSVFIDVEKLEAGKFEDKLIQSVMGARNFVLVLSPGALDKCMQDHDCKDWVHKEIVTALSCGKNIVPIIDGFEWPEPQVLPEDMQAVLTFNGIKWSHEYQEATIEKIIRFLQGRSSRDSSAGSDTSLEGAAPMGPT
- experimental.details: Competitive inhibition of recombinant human SARM1 TIR domain (561 to 724 residues) expressed in Escherichia coli C43 (DE3) cells lysates assessed as EADPR formation using ENAD as substrate preincubated for 20 mins followed by ENAD addition and measured at 15 sec interval for 1 hr
- Format: subcellular
pKi: −log10 of the molar value. Structures can show the parent of a compound that is named as a salt.

compound | pKi
Nc1ccc(/N=N/c2ccccc2)c(N)n1 [PHENAZOPYRIDINE HYDROCHLORIDE] | 4.15
